system: NIH3T3; assay: Cytotoxic Profiling of Annotated Libraries Using Quantitative High-Throughput Screening (AID 1296008); details: Five cell lines viability, CellTiter-Glo ATP luminescence, 48-72 h; stronger effect = lower value; also: % is scaled to controls: 0 for no effect and ±100 for the full control effect; nearly all actives have a fitted effect of over 60% in size
Records with an inconclusive call do not appear. Calls of active or inactive are those of the source. Calls follow the shape of the dose curve; as a rule, active = well fitted inhibition curve with a large enough effect; inconclusive = small, poorly fitted or top-dose-only effect; inactive = flat fitted curve, though single readings scatter.
assay metric: max response

compound	target or system	max response
C/C=C(\C)C(=O)O[C@H]1C=CC(=O)O[C@H]1/C=C/[C@H](O)[C@@H](C)O	NIH3T3	-1.43% (inactive)
Cn1nccc1-c1ccccc1Oc1ccc(S(=O)(=O)Nc2nccs2)cc1C#N	NIH3T3	0.589% (inactive)
C[C@@H]1C(=O)O[C@H](C)[C@H]1C[C@@H](O)[C@](C)(O)[C@H]1CC[C@@]2(O)C3=CC(=O)[C@@H]4C[C@@H](O)[C@@H](O)C[C@]4(C)C3CC[C@]12C (stereo partly drawn)	NIH3T3	1.28% (inactive)
CC1(C)C2CCC1(C)C(OC(=O)C(O)(CC(=O)O)CC(=O)O)C2 (stereo not drawn)	NIH3T3	3.45% (inactive)
C=C(C)[C@H]1CC[C@]2(C(=O)O)CC[C@]3(C)C(CCC4[C@@]5(C)CCC(=O)C(C)(C)C5CC[C@]43C)C12 (stereo partly drawn)	NIH3T3	-1.29% (inactive)

Hi there! I need max response for each item below, if you can.
1. C=C[C@H]1[C@H](O[C@@H]2O[C@H](CO)[C@@H](O)[C@H](O)[C@H]2O)OC=C2C(=O)N3Cc4c([nH]c5ccccc5c4=O)[C@@H]3C[C@H]21
2. COc1c(C)c(OCC(O)C(C)(C)O)cc2c1CNC2=O (stereo not drawn)
3. COC(=O)C1C(O)CCC2CN3CCc4c([nH]c5ccccc45)C3CC21 (stereo not drawn)

Reply:
1. -10.2% (inactive)
2. -1.72% (inactive)
3. -7.25% (inactive)
